Target: MAGI2_6, Q86UL8
Sequence (Q86UL8 1141-1229): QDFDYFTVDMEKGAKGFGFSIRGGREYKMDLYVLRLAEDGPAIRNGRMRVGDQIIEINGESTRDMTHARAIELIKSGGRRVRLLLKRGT
Assay: holdup assay
Parameters: key: below the threshold = too weak to quantify, mostly under pKd 3.1 to 4
Conditions: plain residues with an end cap or a label only (N-terminal biotin on a linker: ado-ado)
Listing: pKd of selected binders

| Binder | pKd |
| --- | --- |
| SGDGKTSVWI [GJC1, P36383] | 3.73 |
| TKEIPNCTSV [SORCS3, Q9UPU3] | 4.43 |
| RDYTQSSSSL [GRM5, P41594] | 3.49 |
| IGHEDLETAV [DGKI, O75912] | 4.59 |
